EXPERIMENT NOTES: MTT cytotoxicity assay
Type: cell-based, human
RECORDED CONDITIONS: human, HEK293T cells, HEK293T, 3.13 µM; read-out: OD450, cytotoxicity (Fig 2a), replicates
Residues, ends and D or L forms follow the SMILES beside them.
MEASURED METRIC: viability at 72 h, 3.13 µM (%)

COMPOUND | UNIT STRING | RECORDED NUMBER
CC[C@H](C)[C@H](NC(=O)[C@H](CCCNC(=N)N)NC(=O)[C@H](CO)NC(=O)[C@H](CC(C)C)NC(=O)[C@H](Cc1ccccc1)NC(=O)[C@H](Cc1ccccc1)NC(=O)[C@@H](N)Cc1ccccc1)C(=O)N[C@@H](Cc1ccccc1)C(N)=O [SHf] (H-FFFLSRIF-NH2; N-terminus assumed) | % | 100

---

System: HEK293T cells
EXPERIMENT NOTES: MTT cytotoxicity assay
Assay type: cell-based, human
Residues, ends and D or L forms follow the SMILES beside them.
MEASURED METRIC: toxicity / cytotoxicity against HEK293T cells (in words)

COMPOUND | RESULT
CC[C@H](C)[C@H](NC(=O)[C@H](CCCNC(=N)N)NC(=O)[C@H](CCCNC(=N)N)NC(=O)[C@H](CC(C)C)NC(=O)[C@H](Cc1ccccc1)NC(=O)[C@@H](N)CCCNC(=N)N)C(=O)N[C@@H](Cc1ccccc1)C(=O)N[C@@H](CCCCN)C(=O)N[C@@H](Cc1ccccc1)C(=O)N[C@@H](Cc1ccccc1)C(=O)N[C@@H](Cc1ccccc1)C(N)=O [HT5] (H-RFLRRIFKFFF-NH2) | high toxicity
CC[C@H](C)[C@H](NC(=O)[C@H](CCCNC(=N)N)NC(=O)[C@H](CCCNC(=N)N)NC(=O)[C@H](CC(C)C)NC(=O)[C@H](Cc1ccccc1)NC(=O)[C@H](Cc1ccccc1)NC(=O)[C@H](Cc1ccccc1)NC(=O)[C@@H](N)Cc1ccccc1)C(=O)N[C@@H](Cc1ccccc1)C(=O)N[C@@H](CCCNC(=N)N)C(N)=O [F-SHf(R^5)-R] (H-FFFFLRRIFR-NH2; N-terminus assumed) | high toxicity

---

System: MRSA USA 300
Assay type: cell-based, Staphylococcus aureus
Non-standard residues stand in square brackets, D forms with d. Residues, ends and D or L forms follow the SMILES beside them.
MEASURED METRIC: MIC Gram+ MRSA USA 300 (µM)

COMPOUND | RECORDED NUMBER
CC[C@H](C)[C@H](NC(=O)[C@H](CCCNC(=N)N)NC(=O)[C@H](CCCNC(=N)N)NC(=O)[C@H](CC(C)C)NC(=O)[C@H](Cc1ccccc1)NC(=O)[C@H](Cc1ccccc1)NC(=O)[C@H](Cc1ccccc1)NC(=O)[C@@H](N)Cc1ccc(O)cc1)C(=O)N[C@@H](Cc1ccccc1)C(N)=O [Y-SHf(R^5)] (H-YFFFLRRIF-NH2; N-terminus assumed) | 6.25
CC[C@H](C)[C@H](NC(=O)[C@@H](CCCNC(=N)N)NC(=O)[C@@H](CCCNC(=N)N)NC(=O)[C@H](CC(C)C)NC(=O)[C@H](Cc1ccccc1)NC(=O)[C@H](Cc1ccccc1)NC(=O)[C@H](Cc1ccccc1)NC(=O)[C@@H](N)Cc1ccccc1)C(=O)N[C@@H](Cc1ccccc1)C(N)=O [F-SHf(dR^5, 6)] (H-FFFFL[dR][dR]IF-NH2; N-terminus assumed) | 3.13
CC[C@@H](C)[C@@H](NC(=O)[C@@H](Cc1ccccc1)NC(=O)[C@@H](Cc1ccccc1)NC(=O)[C@@H](Cc1ccccc1)NC(=O)[C@H](N)Cc1ccccc1)C(=O)N[C@H](CCCNC(=N)N)C(=O)N[C@H](CCCNC(=N)N)C(=O)N[C@H](CC(C)C)C(=O)N[C@H](Cc1ccccc1)C(=O)N[C@H](CCCNC(=N)N)C(N)=O [RI-HT2] (H-[dF][dF][dF][dF][dI][dR][dR][dL][dF][dR]-NH2; N-terminus assumed) | 3.13
